From: patent US9790169B2

ASSAY TARGET: human IDO1 (Homo sapiens)
Sequence (P14902 whole entry): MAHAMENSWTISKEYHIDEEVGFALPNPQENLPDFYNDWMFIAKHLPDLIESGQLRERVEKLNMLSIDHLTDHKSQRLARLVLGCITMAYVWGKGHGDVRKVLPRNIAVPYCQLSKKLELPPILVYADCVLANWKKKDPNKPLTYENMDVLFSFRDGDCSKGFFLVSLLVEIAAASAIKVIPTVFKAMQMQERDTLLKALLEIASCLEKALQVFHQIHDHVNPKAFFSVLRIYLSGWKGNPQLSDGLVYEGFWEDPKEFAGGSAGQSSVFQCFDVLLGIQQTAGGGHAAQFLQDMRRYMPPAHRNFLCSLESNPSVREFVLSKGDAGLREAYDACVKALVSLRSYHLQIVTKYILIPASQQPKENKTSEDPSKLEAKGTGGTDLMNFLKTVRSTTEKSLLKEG
ASSAY: Assessment of human IDO-1 inhibitory activity in Hela cells (Interferon-gamma stimulated HeLa cells, Ehrlich reagent, absorbance 490 nm)
Assay type: cell-based
Set-up: endogenous in cells; host or cells: HeLa cells stimulated with interferon-gamma
STATED CONDITIONS: Hela Human IDO-1 cellular assay
pIC50: −log10 of the molar value.
Consider the following compounds and their measured pIC50 readings.
PROPERTY LABEL: pIC50

CCN(c1ccc([C@H](CC(=O)O)C(F)(F)F)cc1Nc1cnc(OC)nc1)C1CCOCC1 [Example 599] : > 7.30
CCCN(c1ccc(C(COC)CC(=O)O)cc1Nc1ccc(Cl)cc1)C1CCS(=O)(=O)CC1 (single isomer, unassigned) [Example 185] : > 8.30
CCC1COCCN1c1ccc([C@@H](COC)CC(=O)O)cc1Nc1ccc(C#N)cn1 (single isomer, unassigned) [Example 1283] : < 7.30
CCOc1ncc(Nc2cc(C(CC)CC(=O)O)cnc2N(CC)C2CCOCC2)cn1 (racemic) [Example 1378] : > 8.30
